The reported measurements were obtained from patent US20250064789A1.

In this section, each of the compounds is paired with its reported CC50.
System: HUVEC cells (human umbilical vein endothelial cells)
test_summary: Cytotoxic assay against HUVEC cells (MTT, 72 h)
Assay type: cell-based

For orientation, consider the following solved cases.
* COC[C@@H](NC(=O)C1CCC(F)(F)CC1)C(=O)N[C@H](Cc1ccccc1)C(=O)C(=O)NCc1nccs1 | 129 µM
* C[C@@H](NC(=O)C1CCC(F)(F)CC1)C(=O)N[C@H](Cc1ccccc1)C(=O)C(=O)NCc1nccs1 | > 500 µM
* C[C@@H](NC(=O)CC1CC(F)(F)C1)C(=O)N[C@H](Cc1ccccc1)C(=O)C(=O)NCc1nccs1 | > 500 µM

Query: Please supply the value of reported CC50 for the item C[C@@H](NC(=O)C1CCC(F)(F)C1)C(=O)N[C@H](Cc1ccccc1)C(=O)C(=O)NCc1nccs1 (some centres unmarked)
Result: > 500 µM

Query: Please supply the value of reported CC50 for the item `COC[C@@H](NC(=O)CC1CC(F)(F)C1)C(=O)N[C@H](Cc1ccccc1)C(=O)C(=O)NCc1nccs1`
Result: > 500 µM

###

target_entity: recombinant SARS-CoV-2 M^pro (Severe acute respiratory syndrome coronavirus 2 (2019-nCoV) (SARS-CoV-2), UniProt P0DTD1)
test_summary: Inhibition of SARS-CoV-2 M^pro enzyme activity (fluorescent substrate assay)
Type: biochemical
particulars: inhibition of SARS-CoV-2 M^pro enzyme activity; values given in μM; read-out: IC50
reported_metric: IC50 (µM)
Give the value in µM but do not write µM after it.

For orientation, consider the following solved cases.
- O=C(NCc1ccccn1)C(=O)[C@@H](Cc1ccccc1)NC(=O)C1(NC(=O)N2CCC(F)(F)CC2)CC1: 2.43
- C[C@@H](NC(=O)Cc1cc(OC(F)(F)F)ccc1F)C(=O)N[C@H](Cc1ccccc1)C(=O)C(=O)NCc1nccs1: 15
- O=C(CNC(=O)c1cnccn1)N[C@H](Cc1ccccc1)C(=O)C(=O)NCc1nccs1: 3.62
- O=C(NCc1nccs1)C(=O)[C@@H](Cc1cc(F)c(F)cc1F)NC(=O)c1ccccc1: 3.37
- O=C(Cn1cc(-c2ccc(OC(F)(F)F)cc2)cn1)N[C@H](Cc1ccccc1)C(=O)C(=O)NCc1nccs1: 2.27

Query: Please supply the value of reported IC50 for the item `O=C(NCc1ncno1)C(=O)[C@@H](Cc1ccccc1)NC(=O)c1ccccc1`
Result: 62.3

Query: Please supply the value of reported IC50 for the item `C[C@@H](NC(=O)c1cccnc1)C(=O)N[C@H](Cc1ccccc1)C(=O)C(=O)NCc1ccccn1`
Result: 1.21

###

target_entity: recombinant SARS-CoV-2 M^pro (Severe acute respiratory syndrome coronavirus 2 (2019-nCoV) (SARS-CoV-2), UniProt P0DTD1)
test_summary: Inhibition of SARS-CoV-2 M^pro enzyme activity (fluorescent substrate assay)
Type: biochemical
particulars: inhibition of SARS-CoV-2 M^pro enzyme activity; values in nM; read-out: IC50
Note that class boundaries on IC50 are 0: < 20 nM; 1: ≥ 20 nM and < 40 nM; 2: ≥ 40 nM

* O=C(Cn1cc(-c2ccc(F)c(C(F)(F)F)c2)cn1)N[C@H](Cc1ccccc1)C(=O)C(=O)NCc1nccs1 | 2
* C[C@@H](NC(=O)C1(F)CCCCC1)C(=O)N[C@H](Cc1ccccc1)C(=O)C(=O)NCc1nccs1 | 1
* O=C(NCc1ccccn1)C(=O)[C@@H](Cc1ccccc1)NC(=O)C1(NC(=O)[C@@H]2C[C@@H]3[C@H](C2)C3(F)F)CC(F)(F)C1 | 1

Query: Please let me know in which category the item `CC(C)C[C@@H](NC(=O)C1CCC(F)(F)CC1)C(=O)N[C@H](Cc1ccccc1)C(=O)C(=O)NCc1ccccn1` belongs.
Result: 0

Query: Please let me know in which category the item `O=C(CC1CCC(F)(F)CC1)N[C@H](CC1CCCCC1)C(=O)N[C@H](Cc1ccccc1)C(=O)C(=O)NCc1ccccn1` belongs.
Result: 2

###

target_entity: recombinant SARS-CoV-2 M^pro (Severe acute respiratory syndrome coronavirus 2 (2019-nCoV) (SARS-CoV-2), UniProt P0DTD1)
test_summary: Inhibition of SARS-CoV-2 M^pro enzyme activity (fluorescent substrate assay)
Assay type: biochemical
particulars: inhibition of SARS-CoV-2 M^pro enzyme activity; values in nM; read-out: IC50
In this section, each of the compounds is paired with its reported log10 of IC50.
Units before log transform: nM; reported quantity: IC50; transform: log10.

- COC[C@@H](NC(=O)[C@H]1CC[C@@H](F)CC1)C(=O)N[C@H](Cc1ccccc1)C(=O)C(=O)NCc1nccs1: 1.52
- C[C@@H](NC(=O)c1ccccc1F)C(=O)N[C@H](Cc1ccccc1)C(=O)C(=O)NCc1ccccn1: 1.69
- O=C(NCc1ccccn1)C(=O)[C@@H](Cc1ccccc1)NC(=O)[C@H]1COCCN1C(=O)[C@H]1CC[C@@H](C(F)(F)F)CC1: 1.38
- O=C(NCc1ccccn1)C(=O)[C@@H](Cc1ccccc1)NC(=O)[C@@H]1C[C@H]2C[C@H]2N1C(=O)C1CCC(F)(F)CC1: 2.47
- O=C(NC1(C(=O)N[C@H](Cc2ccccc2)C(=O)C(=O)NCc2ccccn2)CCC1)OC1CCC(F)(F)CC1: 1.09

Query: Please supply the value of reported log10 of IC50 for the item `O=C(Cn1cc(-c2c(F)ccc(F)c2F)cn1)N[C@H](Cc1ccccc1)C(=O)C(=O)NCc1nccs1`
Result: 2.38

Query: Please supply the value of reported log10 of IC50 for the item O=C(NCc1ccccn1)C(=O)[C@@H](Cc1ccccc1)NC(=O)C1c2ccccc2CN1C(=O)C1CCC(F)(F)CC1 (stereo partly shown)
Result: 1.54

###

target_entity: recombinant SARS-CoV-2 M^pro (Severe acute respiratory syndrome coronavirus 2 (2019-nCoV) (SARS-CoV-2), UniProt P0DTD1)
test_summary: Inhibition of SARS-CoV-2 M^pro enzyme activity (fluorescent substrate assay)
Type: biochemical
particulars: inhibition of SARS-CoV-2 M^pro enzyme activity; values in nM; read-out: IC50
reported_metric: IC50
The reply must contain the numeric value and, after it, the unit.

For orientation, consider the following solved cases.
- CC(C)(NC(=O)[C@H](NC(=O)c1cnccn1)C1CCCCC1)C(=O)N[C@H](Cc1ccccc1)C(=O)C(=O)NCc1ccccn1: 31.8 nM
- CC(C)(NC(=O)c1cc(OC(F)(F)F)ccc1F)C(=O)N[C@H](Cc1ccccc1)C(=O)C(=O)NCc1ccccn1: 10.5 nM
- CC(C)(NC(=O)[C@H]1CC[C@@H](F)CC1)C(=O)N[C@H](Cc1ccccc1)C(=O)C(=O)NCc1ccccn1: 47.3 nM
- C[C@@H](NC(=O)c1ccc(F)cc1)C(=O)N[C@H](Cc1ccccc1)C(=O)C(=O)NCc1ccccn1: 15.5 nM
- CC(C)[C@@H](NC(=O)C1CCC(F)(F)CC1)C(=O)N[C@H](Cc1ccccc1)C(=O)C(=O)NCc1nccs1: 24.8 nM
- C[C@H](C(=O)N[C@H](Cc1ccccc1)C(=O)C(=O)NCc1ccccn1)N(C)C(=O)C1CCC(F)(F)CC1: 16.5 nM
- O=C(NCc1ccccn1)C(=O)[C@@H](Cc1ccccc1)NC(=O)C1(NC(=O)C2CCOCC2)CCC1: 73 nM
- C[C@@H](NC(=O)c1cnn(-c2ccccc2)c1)C(=O)N[C@H](Cc1ccccc1)C(=O)C(=O)NCc1ccccn1: 158 nM
- C[C@@H](NC(=O)[C@H]1CC[C@@H](F)CC1)C(=O)N[C@H](Cc1ccccc1)C(=O)C(=O)NCc1ccccn1: 40.8 nM
- CC(C)[C@@H](NC(=O)C1CCC(F)(F)CC1)C(=O)N[C@H](Cc1ccccc1)C(=O)C(=O)NCc1ccccn1: 26.8 nM

Query: Please supply the value of reported IC50 for the item `CC(C)(OCc1ccc(Cl)cc1)C(=O)N[C@H](Cc1ccccc1)C(=O)C(=O)NCc1ccc(Cl)cn1`
Result: 20.2 nM

Query: Please supply the value of reported IC50 for the item `N#Cc1ccc(C(=O)NCC(=O)N[C@H](Cc2ccccc2)C(=O)C(=O)NCc2ccccn2)cc1F`
Result: 168 nM

Query: Please supply the value of reported IC50 for the item `O=C(CNC(=O)[C@@H]1C[C@@H]2[C@H](C1)C2(F)F)N[C@H](Cc1ccccc1)C(=O)C(=O)NCc1cscn1`
Result: 20.7 nM

Query: Please supply the value of reported IC50 for the item `C[C@H](C(=O)N[C@H](Cc1ccccc1)C(=O)C(=O)NCc1ccccn1)N(C)C(=O)c1ccc(F)cc1`
Result: 36.4 nM

###

test_summary: Cytotoxic assay against Vero E6 cells (MTT, 72 h)
Assay type: cell-based
particulars: African green monkey
In this section, each of the compounds is paired with its reported CC50 at 72 h.

• C[C@@H](NC(=O)C1CCC(F)(F)CC1)C(=O)N[C@H](Cc1ccccc1)C(=O)C(=O)NCc1ccccn1 = > 500 µM
• CC(C)(NC(=O)C1CCC(F)(F)CC1)C(=O)N[C@H](Cc1ccccc1)C(=O)C(=O)NCc1ccccn1 = 341 µM
• C[C@@H](NC(=O)CC1CC(F)(F)C1)C(=O)N[C@H](Cc1ccccc1)C(=O)C(=O)NCc1cscn1 = > 500 µM

Query: Please supply the value of reported CC50 at 72 h for the item `O=C(CNC(=O)C1CCC(F)(F)CC1)N[C@H](Cc1ccccc1)C(=O)C(=O)NCc1ccccn1`
Result: 281 µM

Query: Please supply the value of reported CC50 at 72 h for the item C[C@@H](NC(=O)CC1CC1(F)F)C(=O)N[C@H](Cc1ccccc1)C(=O)C(=O)NCc1cscn1 (some centres unmarked)
Result: > 500 µM

Query: Please supply the value of reported CC50 at 72 h for the item `O=C(CC1CCC(F)(F)CC1)NCC(=O)N[C@H](Cc1ccccc1)C(=O)C(=O)NCc1ccccn1`
Result: > 500 µM

Query: Please supply the value of reported CC50 at 72 h for the item `CC(C)(C(=O)NCC1CCC(F)(F)CC1)C(=O)N[C@H](Cc1ccccc1)C(=O)C(=O)NCc1ccccn1`
Result: > 500 µM

Query: Please supply the value of reported CC50 at 72 h for the item `CC(C)(NC(=O)[C@@H]1C[C@@H]2[C@H](C1)C2(F)F)C(=O)N[C@H](Cc1ccccc1)C(=O)C(=O)NCc1ccccn1`
Result: > 500 µM

Query: Please supply the value of reported CC50 at 72 h for the item `CC(C)(NC(=O)c1cc(OC(F)(F)F)ccc1F)C(=O)N[C@H](Cc1ccccc1)C(=O)C(=O)NCc1ccccn1`
Result: 157 µM

Query: Please supply the value of reported CC50 at 72 h for the item `C[C@@H](NC(=O)[C@@H]1C[C@@H]2[C@H](C1)C2(F)F)C(=O)N[C@H](Cc1ccccc1)C(=O)C(=O)NCc1ccccn1`
Result: > 500 µM

Query: Please supply the value of reported CC50 at 72 h for the item `O=C(NCc1nccs1)C(=O)[C@@H](Cc1ccccc1)NC(=O)[C@H]1CC(F)(F)CN1C(=O)C1CCC(F)(F)CC1`
Result: 410 µM

Query: Please supply the value of reported CC50 at 72 h for the item C[C@@H](NC(=O)C1CCCC(F)(F)C1)C(=O)N[C@H](Cc1ccccc1)C(=O)C(=O)NCc1nccs1 (some centres unmarked)
Result: > 500 µM

Query: Please supply the value of reported CC50 at 72 h for the item `O=C(NCc1ccccn1)C(=O)[C@@H](Cc1ccccc1)NC(=O)[C@H]1COCCN1C(=O)CC1CCC(F)(F)CC1`
Result: > 500 µM

Query: Please supply the value of reported CC50 at 72 h for the item `C[C@@H](NC(=O)C1CCC(F)(F)CC1)C(=O)N[C@H](Cc1ccco1)C(=O)C(=O)NCc1ccccn1`
Result: > 500 µM

Query: Please supply the value of reported CC50 at 72 h for the item `O=C(CC1CC(F)(F)C1)NCC(=O)N[C@H](Cc1ccccc1)C(=O)C(=O)NCc1nccs1`
Result: > 500 µM

Query: Please supply the value of reported CC50 at 72 h for the item C[C@@H](NC(=O)C1CCC(F)(F)C1)C(=O)N[C@H](Cc1ccccc1)C(=O)C(=O)NCc1cscn1 (some centres unmarked)
Result: > 500 µM

Query: Please supply the value of reported CC50 at 72 h for the item `O=C(CC1CC(F)(F)C1)NCC(=O)N[C@H](Cc1ccccc1)C(=O)C(=O)NCc1cscn1`
Result: > 500 µM
